# ASSAY SYSTEM: rat N-type channels (α1B+α2δ+β1b subunits) (Rattus norvegicus)
# Construct: expressed in transfected cells
# ASSAY DETAILS: Whole cell patch clamp, N-type calcium channel block in HEK 293 cells
# Format: cell-based
# CONDITION SET: 0.067 Hz; read-out: IC50 for N-type Calcium Channel Block (0.067 Hz)
RESULT TYPE: IC50 (nM)
Give the value, in units of nM, as a plain number.

Record COc1cc(CNCCN2CCN(CCCCCC(c3ccc(F)cc3)c3ccc(F)cc3)CC2)cc(OC)c1OC . Reported IC50: 64

Record Fc1ccc(C(CCCCCN2CCN(c3nc4ccccc4s3)CC2)c2ccc(F)cc2)cc1 . Reported IC50: 345

Record Fc1ccc(C(CCCCCN2CCN(Cc3cc(C(F)(F)F)cc(C(F)(F)F)c3)CC2)c2ccc(F)cc2)cc1 . Reported IC50: 1040

Record Fc1ccc(C(CCCCCN2CCN(CCSc3nc4ccccc4s3)CC2)c2ccc(F)cc2)cc1 . Reported IC50: 660

---

# ASSAY SYSTEM: rat N-type channels (α1B+α2δ+β1b subunits) (Rattus norvegicus, UniProt Q02294)
# Construct: expressed in transfected cells
# Sequence (Q02294 whole entry): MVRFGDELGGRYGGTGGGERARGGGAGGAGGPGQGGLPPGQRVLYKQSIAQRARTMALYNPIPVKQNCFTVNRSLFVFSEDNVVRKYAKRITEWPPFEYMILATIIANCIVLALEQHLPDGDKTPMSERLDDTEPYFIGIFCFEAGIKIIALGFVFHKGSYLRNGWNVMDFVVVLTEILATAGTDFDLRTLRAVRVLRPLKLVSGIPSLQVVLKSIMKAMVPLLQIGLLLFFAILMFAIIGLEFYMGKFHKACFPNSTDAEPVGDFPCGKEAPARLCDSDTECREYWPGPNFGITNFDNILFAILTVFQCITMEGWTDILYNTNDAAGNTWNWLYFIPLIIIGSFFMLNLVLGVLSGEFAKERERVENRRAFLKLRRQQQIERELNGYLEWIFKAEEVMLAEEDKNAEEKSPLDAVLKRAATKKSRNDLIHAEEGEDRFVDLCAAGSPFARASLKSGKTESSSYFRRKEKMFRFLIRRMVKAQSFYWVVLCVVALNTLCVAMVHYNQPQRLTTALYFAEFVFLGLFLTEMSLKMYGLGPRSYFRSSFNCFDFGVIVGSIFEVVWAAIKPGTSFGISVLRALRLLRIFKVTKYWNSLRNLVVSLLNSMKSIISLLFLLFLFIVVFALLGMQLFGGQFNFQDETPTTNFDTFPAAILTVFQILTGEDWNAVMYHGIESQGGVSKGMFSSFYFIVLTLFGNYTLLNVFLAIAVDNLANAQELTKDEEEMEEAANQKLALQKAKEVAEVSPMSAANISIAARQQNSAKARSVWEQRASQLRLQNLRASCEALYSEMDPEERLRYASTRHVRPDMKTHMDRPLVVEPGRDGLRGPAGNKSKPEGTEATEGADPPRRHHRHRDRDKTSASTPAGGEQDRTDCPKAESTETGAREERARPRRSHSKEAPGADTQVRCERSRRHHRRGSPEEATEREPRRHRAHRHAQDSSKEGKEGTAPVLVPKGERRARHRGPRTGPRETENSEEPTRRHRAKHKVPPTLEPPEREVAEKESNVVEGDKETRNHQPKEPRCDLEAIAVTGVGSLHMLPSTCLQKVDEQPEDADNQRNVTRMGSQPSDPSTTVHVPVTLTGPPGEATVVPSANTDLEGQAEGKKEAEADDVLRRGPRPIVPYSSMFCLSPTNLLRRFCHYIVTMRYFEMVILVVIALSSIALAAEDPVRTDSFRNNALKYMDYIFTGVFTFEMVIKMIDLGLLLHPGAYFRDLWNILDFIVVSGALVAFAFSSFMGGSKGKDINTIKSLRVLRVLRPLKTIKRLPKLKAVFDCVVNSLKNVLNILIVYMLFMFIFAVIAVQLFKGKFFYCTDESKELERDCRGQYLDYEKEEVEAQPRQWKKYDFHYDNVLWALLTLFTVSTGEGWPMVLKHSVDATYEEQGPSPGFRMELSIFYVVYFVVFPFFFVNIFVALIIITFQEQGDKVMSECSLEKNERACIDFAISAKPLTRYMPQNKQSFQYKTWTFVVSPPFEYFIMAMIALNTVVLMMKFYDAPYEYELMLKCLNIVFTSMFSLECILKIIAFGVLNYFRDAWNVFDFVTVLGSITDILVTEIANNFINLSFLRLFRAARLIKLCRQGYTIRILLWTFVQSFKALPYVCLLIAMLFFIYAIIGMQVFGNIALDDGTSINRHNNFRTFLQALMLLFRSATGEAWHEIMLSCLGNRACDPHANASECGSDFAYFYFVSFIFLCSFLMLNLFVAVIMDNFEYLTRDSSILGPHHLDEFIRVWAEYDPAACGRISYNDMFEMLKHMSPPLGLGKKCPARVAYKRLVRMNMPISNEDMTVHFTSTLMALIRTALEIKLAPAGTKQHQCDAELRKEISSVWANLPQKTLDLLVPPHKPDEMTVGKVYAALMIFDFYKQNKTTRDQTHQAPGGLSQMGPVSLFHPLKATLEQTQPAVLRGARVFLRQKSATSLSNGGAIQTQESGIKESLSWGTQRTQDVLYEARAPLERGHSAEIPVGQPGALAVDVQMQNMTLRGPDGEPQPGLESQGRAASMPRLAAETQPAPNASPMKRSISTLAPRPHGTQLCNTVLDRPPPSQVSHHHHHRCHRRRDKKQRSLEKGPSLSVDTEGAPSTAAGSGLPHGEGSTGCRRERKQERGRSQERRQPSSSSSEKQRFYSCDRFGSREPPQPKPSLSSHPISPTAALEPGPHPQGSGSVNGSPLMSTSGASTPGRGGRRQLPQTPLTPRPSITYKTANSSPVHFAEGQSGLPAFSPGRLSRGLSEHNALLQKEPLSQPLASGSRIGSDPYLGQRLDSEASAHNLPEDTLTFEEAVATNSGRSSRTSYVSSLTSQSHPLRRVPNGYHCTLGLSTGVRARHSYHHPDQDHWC
# Sequence (P54290 25-944 partner limits assumed): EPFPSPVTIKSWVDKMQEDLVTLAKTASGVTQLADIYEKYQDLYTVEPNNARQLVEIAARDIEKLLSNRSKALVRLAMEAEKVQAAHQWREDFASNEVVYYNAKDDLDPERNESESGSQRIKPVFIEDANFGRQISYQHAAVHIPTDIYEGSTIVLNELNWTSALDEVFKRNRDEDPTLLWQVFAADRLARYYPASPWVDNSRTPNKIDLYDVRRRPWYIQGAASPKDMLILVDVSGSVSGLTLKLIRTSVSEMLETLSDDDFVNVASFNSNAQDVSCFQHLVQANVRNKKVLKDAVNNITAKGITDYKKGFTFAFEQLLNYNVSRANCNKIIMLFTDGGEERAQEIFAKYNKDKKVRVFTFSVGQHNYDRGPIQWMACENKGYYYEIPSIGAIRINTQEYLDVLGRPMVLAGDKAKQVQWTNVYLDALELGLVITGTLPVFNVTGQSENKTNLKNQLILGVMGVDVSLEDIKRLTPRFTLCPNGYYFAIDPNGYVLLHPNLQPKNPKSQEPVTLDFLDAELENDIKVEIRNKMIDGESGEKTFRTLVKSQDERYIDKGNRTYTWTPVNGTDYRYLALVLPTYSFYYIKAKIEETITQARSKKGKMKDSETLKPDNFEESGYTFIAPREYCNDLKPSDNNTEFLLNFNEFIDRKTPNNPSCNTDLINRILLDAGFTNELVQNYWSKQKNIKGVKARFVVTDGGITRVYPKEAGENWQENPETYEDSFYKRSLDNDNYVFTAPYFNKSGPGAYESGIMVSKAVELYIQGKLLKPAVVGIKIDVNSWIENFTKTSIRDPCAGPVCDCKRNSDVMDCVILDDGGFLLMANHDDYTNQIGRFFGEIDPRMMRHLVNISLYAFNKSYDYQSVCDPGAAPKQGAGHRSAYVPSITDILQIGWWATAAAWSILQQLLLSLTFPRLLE
# Sequence (P54290 945-1091 partner limits assumed): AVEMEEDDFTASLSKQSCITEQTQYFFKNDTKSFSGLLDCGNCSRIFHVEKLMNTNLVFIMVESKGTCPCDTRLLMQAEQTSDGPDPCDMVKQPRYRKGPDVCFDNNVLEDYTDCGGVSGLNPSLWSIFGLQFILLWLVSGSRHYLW
# Sequence (P54283 whole entry partner): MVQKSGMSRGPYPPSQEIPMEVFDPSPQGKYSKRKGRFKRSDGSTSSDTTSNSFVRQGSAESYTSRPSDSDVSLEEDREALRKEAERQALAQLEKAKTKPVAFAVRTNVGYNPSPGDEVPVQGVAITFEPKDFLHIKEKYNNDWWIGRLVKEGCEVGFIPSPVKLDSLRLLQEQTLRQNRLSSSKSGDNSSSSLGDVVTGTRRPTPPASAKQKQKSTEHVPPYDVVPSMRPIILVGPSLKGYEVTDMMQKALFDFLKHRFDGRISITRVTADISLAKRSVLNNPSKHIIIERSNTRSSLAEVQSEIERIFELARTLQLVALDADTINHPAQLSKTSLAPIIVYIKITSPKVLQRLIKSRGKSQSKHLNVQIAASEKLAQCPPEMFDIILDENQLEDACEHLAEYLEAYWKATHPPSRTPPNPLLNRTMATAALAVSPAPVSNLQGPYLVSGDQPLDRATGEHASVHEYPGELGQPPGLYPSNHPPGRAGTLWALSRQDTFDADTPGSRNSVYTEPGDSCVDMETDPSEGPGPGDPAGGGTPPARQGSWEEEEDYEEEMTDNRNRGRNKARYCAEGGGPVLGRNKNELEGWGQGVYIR
# ASSAY DETAILS: Whole cell patch clamp, N-type calcium channel block in HEK 293 cells
# Format: cell-based
# CONDITION SET: Tested at 0.1 Hz, 5 mM Ba2+
RESULT TYPE: pIC50
Worth noting: pIC50 values are minus log10 of concentrations stated in mol/L.

COc1c(C(C)(C)C)cc(C(=O)N2CCN(C(=O)CCCCC(c3ccc(F)cc3)c3ccc(F)cc3)C[C@@H]2C)cc1C(C)(C)C    7.21

Next:
Measured pIC50 for this entry CCOC(=O)C1CN(Cc2cc(OC)c(OC)c(OC)c2)CCN1CCCCCC(c1ccc(F)cc1)c1ccc(F)cc1 (centres unmarked) on rat N-type channels (α1B+α2δ+β1b subunits) (Rattus norvegicus, UniProt Q02294): 6.87

---

# ASSAY SYSTEM: human α1G subunits (T-type channels) (Homo sapiens, UniProt O43497)
# Construct: expressed in transfected cells
# ASSAY DETAILS: Block of α1G T-type channels, patch clamp in HEK cell lines
# Format: cell-based
# CONDITION SET: 80 mV; read-out: Block of α1G T-type Channels IC50, 80 mV
# Method: Standard patch-clamp techniques were employed to identify blockers of T-type currents. Briefly, previously described HEK cell lines stably expressing human α1G subunits were used for all the recordings (passage #: 4-20, 37° C., 5% CO2). To obtain T-type currents, plastic dishes containing semi-confluent cells were positioned on the stage of a ZEISS AXIOVERT S100 microscope after replacing the culture medium with external solution (see below). […]
pIC50: −log10 of the molar value.
We use 7 as the dividing line for pIC50: on or above the line is Condition met, below is Condition not met.

Recorded results for 2 compounds are shown here.
CCOC(=O)C1CN(Cc2cc(OC)c(OC)c(OC)c2)CCN1CCCCCC(c1ccc(F)cc1)c1ccc(F)cc1 (centres unmarked)    Condition met
O=C(NCC(=O)N1CCN(CCCCCC(c2ccc(F)cc2)c2ccc(F)cc2)CC1)c1ccc(Cl)cc1    Condition met

Enquiry: Quick check, pIC50 >= 7? COc1c(C(C)(C)C)cc(C(=O)N2CCN(C(=O)CCCCC(c3ccc(F)cc3)c3ccc(F)cc3)C[C@@H]2C)cc1C(C)(C)C
Return: Condition not met

---

# ASSAY SYSTEM: rat N-type channels (α1B+α2δ+β1b subunits) (Rattus norvegicus)
# Construct: expressed in transfected cells
# ASSAY DETAILS: Whole cell patch clamp, N-type calcium channel block in HEK 293 cells
# Type: cell-based
# CONDITION SET: 0.2 Hz; read-out: IC50 for N-type Calcium Channel Block (0.2 Hz)
RESULT TYPE: pIC50
Worth noting: pIC50 values are minus log10 of concentrations stated in mol/L.

COc1c(C(C)(C)C)cc(CN2CCN(CCCCCC(c3ccc(F)cc3)c3ccc(F)cc3)C(=O)C2)cc1C(C)(C)C    7.23
Fc1ccc(C(CCCCCN2CCN(CCOc3ccc4c(c3)OCO4)CC2)c2ccc(F)cc2)cc1    6.29
CC(C)(C)c1ccc(C(=O)N2CCN(C(=O)CCCCC(c3ccc(F)cc3)c3ccc(F)cc3)CC2)cc1    6.20
Oc1c(Br)cc(CN2CCN(CCCCCC(c3ccc(F)cc3)c3ccc(F)cc3)CC2)cc1Br    6.29
COc1cc(CNCCN2CCN(CCCCCC(c3ccc(F)cc3)c3ccc(F)cc3)CC2)cc(OC)c1OC    7.52

Record COc1c(C(C)(C)C)cc(C(=O)N2CCN(CCCCCC(c3ccc(F)cc3)c3ccc(F)cc3)C(=O)C2)cc1C(C)(C)C . Reported pIC50: 7.12

Record COc1c(C(C)(C)C)cc(C(=O)N2CCN(C(=O)CCCCC(c3ccc(F)cc3)c3ccc(F)cc3)C[C@@H]2C)cc1C(C)(C)C . Reported pIC50: 7.89

---

# ASSAY SYSTEM: rat N-type channels (α1B+α2δ+β1b subunits) (Rattus norvegicus, UniProt Q02294)
# Construct: expressed in transfected cells
# ASSAY DETAILS: Whole cell patch clamp, N-type calcium channel block in HEK 293 cells
# Type: cell-based
# CONDITION SET: 0.2 Hz; read-out: IC50 for N-type Calcium Channel Block (0.2 Hz)
T if IC50 is below 300 nM. F if not; exact matches included in F.

Cc1cc(OC[C@@H](O)CN2CCN(C(=O)CCCCC(c3ccc(F)cc3)c3ccc(F)cc3)CC2)c(C)c(C)c1N    F
O=C(CCCCC(c1ccc(F)cc1)c1ccc(F)cc1)N1CCN(C(=O)c2cc(C(F)(F)F)cc(C(F)(F)F)c2)CC1    F
COc1cc(C(=O)N2CCN(C(=O)CCCCC(O)(c3ccc(F)cc3)c3ccc(F)cc3)CC2)cc(OC)c1OC    F

Enquiry: I wonder whether Fc1ccc(C(CCCCCN2CCN(c3nc4ccccc4s3)CC2)c2ccc(F)cc2)cc1 has IC50 below 300 nM. Can you tell?
Return: T

Enquiry: I wonder whether COc1cc(CN2CCN(CCCCCC(c3ccc(F)cc3)c3ccc(F)cc3)[C@@H](C(=O)O)C2)cc(OC)c1OC has IC50 below 300 nM. Can you tell?
Return: F

Enquiry: I wonder whether CCOC(=O)C1CN(Cc2cc(OC)c(OC)c(OC)c2)CCN1CCCCCC(c1ccc(F)cc1)c1ccc(F)cc1 (stereo not shown) has IC50 below 300 nM. Can you tell?
Return: T
